test system: rodent lifetime carcinogenesis bioassay, tumor incidence TD50; assay: carcinogenic potency in animals, long-term in vivo studies, CPDB compilation (AID 1745844); settings: rat; strain Fischer 344; males; by gavage; site: thyroid gland; lesion: follicular-cell carcinoma; dosed 103 weeks; study length 104 weeks
Reported TD50 values for the following compounds.

> print(dat)
                               compound                               test.target  quantity.name      obs.value
1  CC(I)C1OCC(CO)O1 (centres undefined)  rodent lifetime carcinogenesis bioassay, tumor incidence TD50           TD50  280 mg/kg/day

Ask | // lookup TD50 for c1ccc2occc2c1
Reply | 389 mg/kg/day

Ask | Queued: O=CCC=O
Reply | 236 mg/kg/day

Ask | Queued: [Cl][Hg][Cl]
Reply | 7.32 mg/kg/day

====

tested on: rodent lifetime carcinogenesis bioassay, tumor incidence TD50; assay: carcinogenic potency in animals, long-term in vivo studies, CPDB compilation (AID 1745844); conditions: rat; strain F344/DuCrj; males; in feed; site: preputial gland; lesion: adenoma; dosed 104 weeks; study length 104 weeks
quantity name: TD50 (mg/kg/day)
Report the value in mg/kg/day with no unit label.

Ask | // lookup TD50 for c1ccc2[nH]c(-c3cscn3)nc2c1
Reply | 571

====

test system: rodent lifetime carcinogenesis bioassay, tumor incidence TD50; test: carcinogenic potency in animals, long-term in vivo studies, CPDB compilation (AID 1745844); conditions: rat; strain Fischer 344; females; in feed; site: urinary bladder; lesion: transitional-cell papilloma; dosed 27 weeks; study length 104 weeks
quantity name: TD50

Ask | Requested read-out TD50, target or system rodent lifetime carcinogenesis bioassay, tumor incidence TD50, entry COc1ccccc1[N+](=O)[O-]
Reply | 543 mg/kg/day

====

test system: rodent lifetime carcinogenesis bioassay, tumor incidence TD50; assay: carcinogenic potency in animals, long-term in vivo studies, CPDB compilation (AID 1745844); details: rat; strain Sprague-Dawley; males; inhaled; site: any site (literature study); lesion: several types; types named in the paper; dosed 52 weeks; study length 104 weeks
quantity name: TD50 (mg/kg/day)
Report the value in mg/kg/day with no unit label.

Ask | // lookup TD50 for C=Cc1ccccc1
Reply | 107

====

test system: rodent lifetime carcinogenesis bioassay, tumor incidence TD50; assay: carcinogenic potency in animals, long-term in vivo studies, CPDB compilation (AID 1745844); settings: mouse; strain B6C3F1; males; by gavage; site: duodenum + lymph node + multiple organs + spleen; lesion: malignant lymphoma, mixed type + malignant lymphoma, NOS + granulocytic leukemia + malignant lymphoma, histiocytic type + malign; dosed 102 weeks; study length 103 weeks
quantity name: TD50 (mg/kg/day)
Report the value in mg/kg/day with no unit label.

Ask | // lookup TD50 for CC(C)=CCl
Reply | 148

====

system: rodent lifetime carcinogenesis bioassay, tumor incidence TD50; experiment: carcinogenic potency in animals, long-term in vivo studies, CPDB compilation (AID 1745844); conditions: rat; strain F344/DuCrj; males; in feed; site: urinary bladder; lesion: squamous-cell carcinoma; dosed 104 weeks; study length 104 weeks
quantity name: TD50 (mg/kg/day)
Report the value in mg/kg/day with no unit label.

Ask | Requested read-out TD50, target or system rodent lifetime carcinogenesis bioassay, tumor incidence TD50, entry O=c1cc[nH]c(=O)[nH]1
Reply | 7800

====

test system: rodent lifetime carcinogenesis bioassay, tumor incidence TD50; test: carcinogenic potency in animals, long-term in vivo studies, CPDB compilation (AID 1745844); conditions: rat; strain Fischer 344; females; by gavage; site: clitoral gland; lesion: adenoma, NOS; dosed 103 weeks; study length 104 weeks
quantity name: TD50
Your reply should be a number followed by the unit it is expressed in.

Ask | // lookup TD50 for CC1(C)S[C@@H]2[C@H](NC(=O)COc3ccccc3)C(=O)N2[C@H]1C(=O)O
Reply | 3650 mg/kg/day

====

test system: rodent lifetime carcinogenesis bioassay, tumor incidence TD50; assay: carcinogenic potency in animals, long-term in vivo studies, CPDB compilation (AID 1745844); conditions: rat; strain Fischer 344; males; in drinking water; site: skin; lesion: keratoacanthoma; dosed 58 weeks; study length 60 weeks
quantity name: TD50

Ask | // lookup TD50 for Cc1cc(-c2ccc(N)c(C)c2)ccc1N
Reply | 4.58 mg/kg/day

====

test system: rodent lifetime carcinogenesis bioassay, tumor incidence TD50; assay: carcinogenic potency in animals, long-term in vivo studies, CPDB compilation (AID 1745844); settings: mouse; strain CDF1; males; in feed; site: lung; lesion: one or several types; types not named; dosed 78 weeks; study length 104 weeks
quantity name: TD50

Ask | // lookup TD50 for NC(=O)C(=Cc1ccc([N+](=O)[O-])o1)c1ccco1
Reply | 9270 mg/kg/day

====

test system: rodent lifetime carcinogenesis bioassay, tumor incidence TD50; assay: carcinogenic potency in animals, long-term in vivo studies, CPDB compilation (AID 1745844); settings: mouse; strain B6C3F1; males; by gavage; site: all sites; lesion: leukemia, NOS + malignant lymphoma, histiocytic type + malignant lymphoma, mixed type + malignant lymphoma, lymphocytic type; dosed 103 weeks; study length 104 weeks
quantity name: TD50 (mg/kg/day)
Report the value in mg/kg/day with no unit label.

Ask | // lookup TD50 for CC1=CC(=O)CC(C)(C)C1
Reply | 236

====

test system: rodent lifetime carcinogenesis bioassay, tumor incidence TD50; experiment: carcinogenic potency in animals, long-term in vivo studies, CPDB compilation (AID 1745844); conditions: rat; strain Fischer 344; males; in feed; site: palate + tongue; lesion: squamous-cell papilloma; dosed 12 weeks; study length 103 weeks
quantity name: TD50 (mg/kg/day)
Report the value in mg/kg/day with no unit label.

Ask | Requested read-out TD50, target or system rodent lifetime carcinogenesis bioassay, tumor incidence TD50, entry OCC(CO)(CBr)CBr
Reply | 24.6

====

tested on: rodent lifetime carcinogenesis bioassay, tumor incidence TD50; assay: carcinogenic potency in animals, long-term in vivo studies, CPDB compilation (AID 1745844); conditions: mouse; strain B6C3F1; females; in feed; site: ovary; lesion: granulosa-cell tumor, benign; dosed 103 weeks; study length 105 weeks
quantity name: TD50

Ask | // lookup TD50 for O=C1CN(N=Cc2ccc([N+](=O)[O-])o2)C(=O)N1
Reply | 8470 mg/kg/day

====

tested on: rodent lifetime carcinogenesis bioassay, tumor incidence TD50; assay: carcinogenic potency in animals, long-term in vivo studies, CPDB compilation (AID 1745844); conditions: rat; strain Fischer 344; females; by gavage; site: thyroid gland; lesion: c-cell adenoma + c-cell carcinoma; dosed 103 weeks; study length 104 weeks
Active and inactive are the calls of the source. How the calls were made is not given here.
quantity name: TD50

Ask | // lookup TD50 for CC1(C)S[C@@H]2[C@H](NC(=O)COc3ccccc3)C(=O)N2[C@H]1C(=O)O
Reply | 1360 mg/kg/day (inactive)

====

tested on: rodent lifetime carcinogenesis bioassay, tumor incidence TD50; test: carcinogenic potency in animals, long-term in vivo studies, CPDB compilation (AID 1745844); details: rat; strain Fischer 344; females; in feed; site: any site (literature study); lesion: several types; types named in the paper; dosed 107 weeks; study length 107 weeks
Activity calls are given as the source filed them. No rule for the calls is given here.
quantity name: TD50

> print(dat)
   item.smiles                               test.target  quantity.name                 obs.value
1         N#CN  rodent lifetime carcinogenesis bioassay, tumor incidence TD50           TD50  267 mg/kg/day (inactive)

Next, consider the following compound.
Ask | // lookup TD50 for CCCCOCCOCCOCc1cc2c(cc1CCC)OCO2
Reply | 7820 mg/kg/day

====

system: rodent lifetime carcinogenesis bioassay, tumor incidence TD50; experiment: carcinogenic potency in animals, long-term in vivo studies, CPDB compilation (AID 1745844); conditions: mouse; strain B6C3F1; males; inhaled; site: Harderian gland; lesion: adenocarcinoma + adenoma + adenoma, bilateral; dosed 40 weeks; study length 104 weeks
quantity name: TD50

Ask | // lookup TD50 for C=CC=C
Reply | 17.5 mg/kg/day

====

test system: rodent lifetime carcinogenesis bioassay, tumor incidence TD50; assay: carcinogenic potency in animals, long-term in vivo studies, CPDB compilation (AID 1745844); details: mouse; strain B6C3F1; males; by gavage; site: adrenal medulla; lesion: pheochromocytoma; dosed 102 weeks; study length 104 weeks
quantity name: TD50

Ask | // lookup TD50 for CCCCCCc1ccc(O)cc1O
Reply | 519 mg/kg/day

====

system: rodent lifetime carcinogenesis bioassay, tumor incidence TD50; assay: carcinogenic potency in animals, long-term in vivo studies, CPDB compilation (AID 1745844); conditions: rat; strain Fischer 344; females; by gavage; site: mammary gland; lesion: fibroadenoma; dosed 106 weeks; study length 108 weeks
quantity name: TD50

Ask | // lookup TD50 for Cc1ccc(N=C=O)cc1N=C=O
Reply | 33.4 mg/kg/day

====

test system: rodent lifetime carcinogenesis bioassay, tumor incidence TD50; experiment: carcinogenic potency in animals, long-term in vivo studies, CPDB compilation (AID 1745844); conditions: mouse; strain B6C3F1; females; inhaled; site: liver; lesion: hepatocellular adenoma + hepatocellular carcinoma; dosed 83 weeks; study length 104 weeks
quantity name: TD50

Ask | // lookup TD50 for C=CC=C
Reply | 22.8 mg/kg/day
